Data provenance: patent US20140274782A1

experimentalSystem: T1, G9a and GLP (Homo sapiens, UniProt Q96KQ7+Q9H9B1)
T1 sequence (Q96KQ7 2-1210 limits assumed): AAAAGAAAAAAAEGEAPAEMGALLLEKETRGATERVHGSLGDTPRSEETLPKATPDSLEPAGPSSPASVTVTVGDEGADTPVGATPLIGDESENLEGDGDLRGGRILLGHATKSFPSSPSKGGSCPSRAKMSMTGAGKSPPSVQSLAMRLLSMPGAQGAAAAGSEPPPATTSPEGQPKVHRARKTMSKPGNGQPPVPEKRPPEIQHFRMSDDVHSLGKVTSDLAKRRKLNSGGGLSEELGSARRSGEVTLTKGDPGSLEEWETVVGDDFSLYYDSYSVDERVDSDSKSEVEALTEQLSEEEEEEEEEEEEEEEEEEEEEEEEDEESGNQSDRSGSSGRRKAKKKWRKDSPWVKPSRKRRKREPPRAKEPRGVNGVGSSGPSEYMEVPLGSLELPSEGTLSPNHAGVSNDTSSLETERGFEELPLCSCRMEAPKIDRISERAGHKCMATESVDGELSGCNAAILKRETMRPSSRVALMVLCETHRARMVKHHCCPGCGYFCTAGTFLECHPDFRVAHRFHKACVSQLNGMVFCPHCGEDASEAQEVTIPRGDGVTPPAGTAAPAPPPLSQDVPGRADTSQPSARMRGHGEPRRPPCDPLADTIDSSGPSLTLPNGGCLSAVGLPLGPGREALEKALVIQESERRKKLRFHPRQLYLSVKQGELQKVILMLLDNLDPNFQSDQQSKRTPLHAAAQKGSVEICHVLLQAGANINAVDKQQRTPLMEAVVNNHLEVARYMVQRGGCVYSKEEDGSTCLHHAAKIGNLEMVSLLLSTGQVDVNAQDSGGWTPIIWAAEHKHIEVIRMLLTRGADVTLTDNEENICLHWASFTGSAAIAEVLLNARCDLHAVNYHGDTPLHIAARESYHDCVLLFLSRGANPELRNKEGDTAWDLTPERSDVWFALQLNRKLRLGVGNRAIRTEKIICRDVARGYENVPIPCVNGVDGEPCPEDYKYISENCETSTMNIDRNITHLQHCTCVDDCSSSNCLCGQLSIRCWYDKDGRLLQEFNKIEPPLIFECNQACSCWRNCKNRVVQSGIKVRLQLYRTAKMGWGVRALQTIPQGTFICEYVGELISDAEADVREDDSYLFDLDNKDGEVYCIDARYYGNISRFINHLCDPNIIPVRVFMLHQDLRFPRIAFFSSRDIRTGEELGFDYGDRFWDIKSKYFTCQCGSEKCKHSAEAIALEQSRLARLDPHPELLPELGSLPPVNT
T1 sequence (Q9H9B1 2-1298 limits assumed): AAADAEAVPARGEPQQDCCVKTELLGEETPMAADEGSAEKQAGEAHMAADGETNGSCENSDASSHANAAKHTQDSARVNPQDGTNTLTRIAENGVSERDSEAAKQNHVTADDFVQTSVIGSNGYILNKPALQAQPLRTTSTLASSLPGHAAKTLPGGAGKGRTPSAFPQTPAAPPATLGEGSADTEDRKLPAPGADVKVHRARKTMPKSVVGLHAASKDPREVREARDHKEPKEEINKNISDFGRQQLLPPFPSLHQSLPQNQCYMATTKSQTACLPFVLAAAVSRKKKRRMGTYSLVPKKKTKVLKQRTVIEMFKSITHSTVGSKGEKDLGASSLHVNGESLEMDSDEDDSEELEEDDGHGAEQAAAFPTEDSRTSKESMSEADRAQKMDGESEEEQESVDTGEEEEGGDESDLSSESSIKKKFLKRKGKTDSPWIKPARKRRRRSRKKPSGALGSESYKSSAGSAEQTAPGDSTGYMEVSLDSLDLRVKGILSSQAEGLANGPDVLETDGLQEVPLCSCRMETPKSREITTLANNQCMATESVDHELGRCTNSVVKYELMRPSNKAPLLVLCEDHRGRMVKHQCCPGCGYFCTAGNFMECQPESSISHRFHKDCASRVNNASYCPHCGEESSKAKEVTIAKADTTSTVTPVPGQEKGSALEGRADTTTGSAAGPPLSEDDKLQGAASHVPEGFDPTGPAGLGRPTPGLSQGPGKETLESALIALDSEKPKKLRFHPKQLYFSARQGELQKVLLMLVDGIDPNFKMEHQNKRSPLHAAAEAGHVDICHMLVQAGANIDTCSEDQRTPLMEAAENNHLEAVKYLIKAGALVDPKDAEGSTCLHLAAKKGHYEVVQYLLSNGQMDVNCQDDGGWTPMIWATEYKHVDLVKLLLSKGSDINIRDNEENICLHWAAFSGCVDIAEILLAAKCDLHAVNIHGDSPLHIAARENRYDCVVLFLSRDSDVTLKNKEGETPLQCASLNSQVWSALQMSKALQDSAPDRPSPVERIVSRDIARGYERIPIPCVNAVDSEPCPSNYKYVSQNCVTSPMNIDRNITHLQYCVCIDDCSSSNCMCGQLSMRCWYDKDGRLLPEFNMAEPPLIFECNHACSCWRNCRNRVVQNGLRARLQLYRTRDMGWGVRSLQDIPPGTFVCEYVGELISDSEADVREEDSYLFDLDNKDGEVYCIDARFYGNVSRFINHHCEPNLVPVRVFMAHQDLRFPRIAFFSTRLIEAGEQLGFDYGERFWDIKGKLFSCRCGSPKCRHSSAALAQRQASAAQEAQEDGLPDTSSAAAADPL
protocolDescription: Triple SILAC pull-down after UNC0638 treatment of 293T cells, DMSO/UNC0638 ratio of protein captured by 3×MBT;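 also: mass spectrometry (Q-Exactive) SILAC quantitation, DMSO/UNC0638 ratio computed after subtracting 3×MBTD355N mutant pull-down background, only proteins with at least twofold 3×MBT over mutant signal considered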
Type: cell-based
Design: cells were treated for 24 hours with UNC0638 at 2.5 μM or DMSO vehicle control; endogenous in cells; host or cells: HEK 293T
experimentalConditions: SILAC ratio DMSO/UNC0638 of protein pulled down with 3xMBT; UNC0638 in light SILAC media

[
  {
    "molecule": "HNRNPC (protein, UniProt P07910 2-306, looked up) Heterogeneous nuclear …: ASNVTNKTDPRSMNSRVFIGNLNTLVVKKSDVEAIFSKYGKIVGCSVHKGFAFVQYVNERNARAAVAGEDGRMIAGQVLDINLAAEPKVNRGKAGVKRSAAEMYGSVTEHPSPSPLLSSSFDLDYDFQRDYYDRMYSYPARVPPPPPIARAVVPSKRQRVSGNTSRRGKSGFNSKSGQRGSSKSGKLKGDDLQAIKKELTQIKQKVDSLLENLEKIEKEQSKQAVEMKNDKSEEEQSSSSVKKDETNVKMESEGGADDSAEEGDLLDDDDNEDRGDDQLELIKDDEKEAEEGEDDRDSANGEDDS",
    "Relative to UNC0638 UNC Light / log base 2": 0.20
  }
]
